# Tgt: FLAG-tagged SNAP-Tag protein (SNAP-FLAG) (Homo sapiens, UniProt P16455, A127T/A154D/C150Q/C62A/E30R/G131K/G132T/G153L/K125A/K32I/L33F/M134L/N157G/Q115S/Q116H/R128A/R135S/S151G/S152D/S159E)
# Construct: expressed in transfected cells
# Sequence (P16455 1-182 with the stated changes limits assumed): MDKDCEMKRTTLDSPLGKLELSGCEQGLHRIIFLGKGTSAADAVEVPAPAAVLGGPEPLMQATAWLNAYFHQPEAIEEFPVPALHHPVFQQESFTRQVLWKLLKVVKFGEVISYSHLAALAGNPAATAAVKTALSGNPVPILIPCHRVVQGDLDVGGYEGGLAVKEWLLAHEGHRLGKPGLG
# Test method notes: PP1 dose response: covalent labeling of SNAP-FLAG in live cells (Western blot)
# Assay type: cell-based
# Measurement context: HEK293T cells stably expressing SNAP-FLAG, increasing doses for two hours, not irradiated
Metric: EC50 (µM)
API: value field is a number in µM; no unit string.

Returns the measured EC50 for the input compound. Input: COc1cc(C(C)OC(=O)NC(CCCCNC(=O)CCC2(C)N=N2)C(=O)NCCCCCNC(=O)CCCCC2SCC3NC(=O)NC32)c([N+](=O)[O-])cc1OCCCC(=O)NCc1ccc(COc2nc(N)nc3[nH]cnc23)cc1 (stereo not shown)
4.5
